- experimental_system: Glutamate receptor ionotropic, kainate 2 (Homo sapiens)
- Sequence (Q13002 whole entry): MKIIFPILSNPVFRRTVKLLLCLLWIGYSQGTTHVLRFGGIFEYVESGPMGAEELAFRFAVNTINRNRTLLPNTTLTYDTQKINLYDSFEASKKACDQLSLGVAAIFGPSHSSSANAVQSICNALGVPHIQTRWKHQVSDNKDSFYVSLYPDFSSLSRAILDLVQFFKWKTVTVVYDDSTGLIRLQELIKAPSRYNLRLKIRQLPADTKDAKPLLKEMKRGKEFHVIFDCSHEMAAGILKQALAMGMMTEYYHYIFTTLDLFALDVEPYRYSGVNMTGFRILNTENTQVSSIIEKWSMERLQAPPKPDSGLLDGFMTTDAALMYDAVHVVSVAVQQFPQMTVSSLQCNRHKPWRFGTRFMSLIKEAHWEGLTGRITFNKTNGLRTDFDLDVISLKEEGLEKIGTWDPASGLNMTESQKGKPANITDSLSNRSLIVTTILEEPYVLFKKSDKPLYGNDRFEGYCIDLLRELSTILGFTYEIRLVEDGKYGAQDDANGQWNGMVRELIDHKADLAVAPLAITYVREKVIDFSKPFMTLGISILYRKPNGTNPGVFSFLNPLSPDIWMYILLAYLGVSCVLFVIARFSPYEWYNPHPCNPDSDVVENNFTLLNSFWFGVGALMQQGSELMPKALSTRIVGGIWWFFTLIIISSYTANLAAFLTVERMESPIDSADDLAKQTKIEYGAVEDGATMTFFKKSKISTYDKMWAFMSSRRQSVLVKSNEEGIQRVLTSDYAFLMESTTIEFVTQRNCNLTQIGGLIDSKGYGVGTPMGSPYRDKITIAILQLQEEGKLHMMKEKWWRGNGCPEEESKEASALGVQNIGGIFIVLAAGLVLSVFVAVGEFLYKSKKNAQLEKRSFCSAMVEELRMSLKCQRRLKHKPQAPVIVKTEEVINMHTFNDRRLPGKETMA
- method_summary: Antagonist activity at human recombinant GluK2 receptor expressed in human HEK293 cells assessed as inhibition of glutamate-stimulated calcium influx by fluorescence assay
- Assay type: functional, cell-based
assay_endpoint: Kb

>  <molecule>
O=C(O)[C@H]1NCCN(C(=O)c2ccc3cc4ccccc4cc3c2)[C@H]1C(=O)O (relative stereo)

>  <val>
> 100 µM

$$$$
>  <molecule>
O=C(O)[C@H]1NCCN(C(=O)c2ccc3c(ccc4cc(Br)ccc43)c2)[C@H]1C(=O)O

>  <val>
> 100 µM

$$$$
>  <molecule>
O=C(O)[C@H]1NCCN(C(=O)c2ccc(C#Cc3ccccc3)cc2)[C@H]1C(=O)O (relative stereo)

>  <val>
> 100 µM

$$$$
>  <molecule>
O=C(O)[C@H]1NCCN(C(=O)c2ccc(-c3ccccc3)cc2)[C@H]1C(=O)O

>  <val>
> 100 µM

$$$$

* * *

- experimental_system: Glutamate NMDA receptor; Grin1/Grin2b (Rattus norvegicus, UniProt P35439+Q00960)
- Sequence (Q00960 whole entry, other chains not shown): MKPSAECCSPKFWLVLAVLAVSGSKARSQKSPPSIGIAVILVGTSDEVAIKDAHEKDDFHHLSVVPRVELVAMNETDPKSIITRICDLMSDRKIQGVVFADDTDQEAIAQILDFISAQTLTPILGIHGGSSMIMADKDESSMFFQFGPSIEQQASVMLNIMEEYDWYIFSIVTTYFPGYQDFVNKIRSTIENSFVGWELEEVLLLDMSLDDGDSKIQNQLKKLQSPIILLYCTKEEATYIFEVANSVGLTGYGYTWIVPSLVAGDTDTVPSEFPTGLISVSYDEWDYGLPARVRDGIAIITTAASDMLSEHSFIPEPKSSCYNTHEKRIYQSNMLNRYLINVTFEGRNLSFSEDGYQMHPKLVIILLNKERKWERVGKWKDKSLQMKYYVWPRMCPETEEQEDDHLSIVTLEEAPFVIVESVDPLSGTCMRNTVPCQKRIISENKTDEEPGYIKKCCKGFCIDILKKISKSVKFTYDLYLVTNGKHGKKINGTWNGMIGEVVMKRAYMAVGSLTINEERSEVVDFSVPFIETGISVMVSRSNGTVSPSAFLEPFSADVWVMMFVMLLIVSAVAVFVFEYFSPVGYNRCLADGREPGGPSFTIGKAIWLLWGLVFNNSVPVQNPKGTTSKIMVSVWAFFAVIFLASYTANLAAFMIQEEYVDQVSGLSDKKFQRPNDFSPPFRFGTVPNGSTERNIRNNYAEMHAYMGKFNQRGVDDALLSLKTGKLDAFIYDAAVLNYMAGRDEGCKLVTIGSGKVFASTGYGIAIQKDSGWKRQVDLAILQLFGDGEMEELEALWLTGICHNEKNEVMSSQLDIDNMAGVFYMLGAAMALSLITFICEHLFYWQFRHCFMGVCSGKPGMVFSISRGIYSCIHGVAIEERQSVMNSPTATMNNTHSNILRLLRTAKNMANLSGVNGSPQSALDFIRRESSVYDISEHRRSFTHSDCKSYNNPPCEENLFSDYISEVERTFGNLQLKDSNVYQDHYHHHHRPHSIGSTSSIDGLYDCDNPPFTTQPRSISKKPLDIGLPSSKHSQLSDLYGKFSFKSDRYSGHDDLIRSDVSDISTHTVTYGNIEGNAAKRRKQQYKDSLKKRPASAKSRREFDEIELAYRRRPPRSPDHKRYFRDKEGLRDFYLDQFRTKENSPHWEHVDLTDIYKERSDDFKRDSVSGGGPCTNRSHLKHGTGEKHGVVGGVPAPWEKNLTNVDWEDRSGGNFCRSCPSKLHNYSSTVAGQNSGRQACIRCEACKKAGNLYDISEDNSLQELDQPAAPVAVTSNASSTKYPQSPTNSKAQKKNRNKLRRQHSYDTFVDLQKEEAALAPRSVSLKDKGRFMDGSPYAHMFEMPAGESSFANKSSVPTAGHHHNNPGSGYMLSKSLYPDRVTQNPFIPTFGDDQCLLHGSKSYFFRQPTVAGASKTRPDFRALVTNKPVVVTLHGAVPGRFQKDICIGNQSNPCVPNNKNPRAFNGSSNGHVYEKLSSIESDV
- method_summary: Antagonist activity rat recombinant GluN1/GluN2B receptor expressed in Xenopus laevis oocytes assessed as inhibition of glutamate-induced response by two-electrode voltage-clamp electrophysiology assay
- test_settings: read-out: Ki(app)
assay_endpoint: log10 Ki (log10 of the value in µM)

>  <compound>
O=C(O)[C@H]1NCCN(C(=O)c2ccc3cc4ccccc4cc3c2)[C@H]1C(=O)O (relative stereo)

>  <assay_endpoint>
log10 Ki

>  <val>
0.72

$$$$
>  <compound>
O=C(O)[C@H]1NCCN(C(=O)c2ccc3cc(Br)ccc3c2)[C@H]1C(=O)O (relative stereo)

>  <assay_endpoint>
log10 Ki

>  <val>
0.43

$$$$
>  <compound>
O=C(O)[C@H]1NCCN(C(=O)c2ccc3cc(F)ccc3c2)[C@H]1C(=O)O (relative stereo)

>  <assay_endpoint>
log10 Ki

>  <val>
1.09

$$$$
>  <compound>
O=C(O)C1NCCN(C(=O)c2ccc3c(ccc4ccccc43)c2)C1C(=O)O (racemic)

>  <assay_endpoint>
log10 Ki

>  <val>
-0.51

$$$$
>  <compound>
O=C(O)[C@H]1NCCN(C(=O)c2ccc3cc(Cl)c4ccccc4c3c2)[C@H]1C(=O)O (relative stereo)

>  <assay_endpoint>
log10 Ki

>  <val>
1.18

$$$$

* * *

- experimental_system: Glutamate NMDA receptor; Grin1/Grin2c (Rattus norvegicus, UniProt P35439+Q00961)
- Sequence (Q00961 whole entry, other chains not shown): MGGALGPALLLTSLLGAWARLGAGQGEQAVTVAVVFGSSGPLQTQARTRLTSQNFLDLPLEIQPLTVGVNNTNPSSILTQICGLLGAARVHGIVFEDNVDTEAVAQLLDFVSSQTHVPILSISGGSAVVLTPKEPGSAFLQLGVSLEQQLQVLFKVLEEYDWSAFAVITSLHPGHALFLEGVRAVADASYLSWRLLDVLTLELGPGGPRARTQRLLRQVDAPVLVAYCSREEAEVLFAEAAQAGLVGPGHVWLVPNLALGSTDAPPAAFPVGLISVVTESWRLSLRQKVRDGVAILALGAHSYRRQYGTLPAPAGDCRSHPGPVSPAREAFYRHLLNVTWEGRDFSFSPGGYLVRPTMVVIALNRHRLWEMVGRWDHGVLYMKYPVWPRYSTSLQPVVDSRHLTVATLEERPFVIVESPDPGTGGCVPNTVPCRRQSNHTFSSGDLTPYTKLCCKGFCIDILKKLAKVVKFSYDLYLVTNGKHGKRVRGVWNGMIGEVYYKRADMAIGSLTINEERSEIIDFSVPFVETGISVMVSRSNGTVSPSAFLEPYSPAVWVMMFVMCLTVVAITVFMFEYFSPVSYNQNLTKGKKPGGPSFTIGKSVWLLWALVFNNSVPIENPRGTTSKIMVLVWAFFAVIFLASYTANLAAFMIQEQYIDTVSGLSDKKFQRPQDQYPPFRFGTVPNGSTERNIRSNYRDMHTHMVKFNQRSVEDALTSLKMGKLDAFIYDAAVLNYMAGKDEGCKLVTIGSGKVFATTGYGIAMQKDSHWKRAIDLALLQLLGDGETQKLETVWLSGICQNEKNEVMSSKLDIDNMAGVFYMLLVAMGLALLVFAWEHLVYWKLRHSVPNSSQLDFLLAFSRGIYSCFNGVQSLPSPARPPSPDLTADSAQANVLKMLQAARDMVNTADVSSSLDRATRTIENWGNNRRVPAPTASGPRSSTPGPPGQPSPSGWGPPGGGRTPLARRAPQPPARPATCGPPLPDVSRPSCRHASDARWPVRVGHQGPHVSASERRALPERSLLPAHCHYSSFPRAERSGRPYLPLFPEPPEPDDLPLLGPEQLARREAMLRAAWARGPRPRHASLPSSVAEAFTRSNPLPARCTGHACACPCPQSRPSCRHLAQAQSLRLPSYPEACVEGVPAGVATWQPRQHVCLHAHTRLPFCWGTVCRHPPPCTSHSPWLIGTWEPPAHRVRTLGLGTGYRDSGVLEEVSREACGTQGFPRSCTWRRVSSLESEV
- method_summary: Antagonist activity rat recombinant GluN1/GluN2C receptor expressed in Xenopus laevis oocytes assessed as inhibition of glutamate-induced response by two-electrode voltage-clamp electrophysiology assay
- test_settings: read-out: Ki(app)
assay_endpoint: log10(Ki) (log10 of the value in µM)

>  <compound>
O=C(O)[C@H]1NCCN(C(=O)c2ccc3cc(Br)ccc3c2)[C@H]1C(=O)O (relative stereo)

>  <experimental_system>
Glutamate NMDA receptor; Grin1/Grin2c (Rattus norvegicus, UniProt P35439+Q00961)

>  <log10(Ki)>
0.32

$$$$
>  <compound>
O=C(O)[C@H]1NCCN(C(=O)c2ccc3cc(-c4ccccc4)ccc3c2)[C@H]1C(=O)O (relative stereo)

>  <experimental_system>
Glutamate NMDA receptor; Grin1/Grin2c (Rattus norvegicus, UniProt P35439+Q00961)

>  <log10(Ki)>
0.71

$$$$
>  <compound>
O=C(O)[C@H]1NCCN(C(=O)c2ccc3cc(Cl)c4ccccc4c3c2)[C@H]1C(=O)O (relative stereo)

>  <experimental_system>
Glutamate NMDA receptor; Grin1/Grin2c (Rattus norvegicus, UniProt P35439+Q00961)

>  <log10(Ki)>
0.51

$$$$
>  <compound>
O=C(O)C1NCCN(C(=O)c2ccc3c(ccc4ccccc43)c2)C1C(=O)O (racemic)

>  <experimental_system>
Glutamate NMDA receptor; Grin1/Grin2c (Rattus norvegicus, UniProt P35439+Q00961)

>  <log10(Ki)>
-1.00

$$$$
>  <compound>
O=C(O)[C@H]1NCCN(C(=O)c2ccc(/N=N/c3ccccc3)cc2)[C@H]1C(=O)O (relative stereo)

>  <experimental_system>
Glutamate NMDA receptor; Grin1/Grin2c (Rattus norvegicus, UniProt P35439+Q00961)

>  <log10(Ki)>
1.45

$$$$
>  <compound>
O=C(O)[C@H]1NCCN(C(=O)c2ccc3cc(F)ccc3c2)[C@H]1C(=O)O (relative stereo)

>  <experimental_system>
Glutamate NMDA receptor; Grin1/Grin2c (Rattus norvegicus, UniProt P35439+Q00961)

>  <log10(Ki)>
0.56

$$$$

* * *

- experimental_system: Glutamate NMDA receptor; Grin1/Grin2b (Rattus norvegicus, UniProt P35439+Q00960)
- method_summary: Antagonist activity rat recombinant GluN1/GluN2B receptor expressed in Xenopus laevis oocytes assessed as inhibition of glutamate-induced response by two-electrode voltage-clamp electrophysiology assay
- test_settings: read-out: Ki(app)
pKi: −log10 of the molar value.
# pKi annotations

>  <compound>
O=C(O)[C@H]1NCCN(C(=O)c2ccc3cc(-c4ccccc4)ccc3c2)[C@H]1C(=O)O (relative stereo)

>  <experimental_system>
Glutamate NMDA receptor; Grin1/Grin2b (Rattus norvegicus, UniProt P35439+Q00960)

>  <inequality_symbol>
<

>  <pKi>
4.00

$$$$
>  <compound>
O=C(O)[C@H]1NCCN(C(=O)CCc2ccc3ccccc3c2)[C@H]1C(=O)O (relative stereo)

>  <experimental_system>
Glutamate NMDA receptor; Grin1/Grin2b (Rattus norvegicus, UniProt P35439+Q00960)

>  <inequality_symbol>
=

>  <pKi>
5.64

$$$$
>  <compound>
O=C(O)[C@H]1NCCN(C(=O)c2ccc(C#Cc3ccccc3)cc2)[C@H]1C(=O)O (relative stereo)

>  <experimental_system>
Glutamate NMDA receptor; Grin1/Grin2b (Rattus norvegicus, UniProt P35439+Q00960)

>  <inequality_symbol>
=

>  <pKi>
4.62

$$$$
>  <compound>
O=C(O)[C@H]1NCCN(C(=O)c2ccc3cc(Br)c4ccccc4c3c2)[C@H]1C(=O)O (relative stereo)

>  <experimental_system>
Glutamate NMDA receptor; Grin1/Grin2b (Rattus norvegicus, UniProt P35439+Q00960)

>  <inequality_symbol>
=

>  <pKi>
5.10

$$$$

* * *

# pKi annotations
- experimental_system: Ionotropic glutamate receptor NMDA 1/2D (Rattus norvegicus, UniProt P35439+Q62645)
- Sequence (Q62645 whole entry, other chains not shown): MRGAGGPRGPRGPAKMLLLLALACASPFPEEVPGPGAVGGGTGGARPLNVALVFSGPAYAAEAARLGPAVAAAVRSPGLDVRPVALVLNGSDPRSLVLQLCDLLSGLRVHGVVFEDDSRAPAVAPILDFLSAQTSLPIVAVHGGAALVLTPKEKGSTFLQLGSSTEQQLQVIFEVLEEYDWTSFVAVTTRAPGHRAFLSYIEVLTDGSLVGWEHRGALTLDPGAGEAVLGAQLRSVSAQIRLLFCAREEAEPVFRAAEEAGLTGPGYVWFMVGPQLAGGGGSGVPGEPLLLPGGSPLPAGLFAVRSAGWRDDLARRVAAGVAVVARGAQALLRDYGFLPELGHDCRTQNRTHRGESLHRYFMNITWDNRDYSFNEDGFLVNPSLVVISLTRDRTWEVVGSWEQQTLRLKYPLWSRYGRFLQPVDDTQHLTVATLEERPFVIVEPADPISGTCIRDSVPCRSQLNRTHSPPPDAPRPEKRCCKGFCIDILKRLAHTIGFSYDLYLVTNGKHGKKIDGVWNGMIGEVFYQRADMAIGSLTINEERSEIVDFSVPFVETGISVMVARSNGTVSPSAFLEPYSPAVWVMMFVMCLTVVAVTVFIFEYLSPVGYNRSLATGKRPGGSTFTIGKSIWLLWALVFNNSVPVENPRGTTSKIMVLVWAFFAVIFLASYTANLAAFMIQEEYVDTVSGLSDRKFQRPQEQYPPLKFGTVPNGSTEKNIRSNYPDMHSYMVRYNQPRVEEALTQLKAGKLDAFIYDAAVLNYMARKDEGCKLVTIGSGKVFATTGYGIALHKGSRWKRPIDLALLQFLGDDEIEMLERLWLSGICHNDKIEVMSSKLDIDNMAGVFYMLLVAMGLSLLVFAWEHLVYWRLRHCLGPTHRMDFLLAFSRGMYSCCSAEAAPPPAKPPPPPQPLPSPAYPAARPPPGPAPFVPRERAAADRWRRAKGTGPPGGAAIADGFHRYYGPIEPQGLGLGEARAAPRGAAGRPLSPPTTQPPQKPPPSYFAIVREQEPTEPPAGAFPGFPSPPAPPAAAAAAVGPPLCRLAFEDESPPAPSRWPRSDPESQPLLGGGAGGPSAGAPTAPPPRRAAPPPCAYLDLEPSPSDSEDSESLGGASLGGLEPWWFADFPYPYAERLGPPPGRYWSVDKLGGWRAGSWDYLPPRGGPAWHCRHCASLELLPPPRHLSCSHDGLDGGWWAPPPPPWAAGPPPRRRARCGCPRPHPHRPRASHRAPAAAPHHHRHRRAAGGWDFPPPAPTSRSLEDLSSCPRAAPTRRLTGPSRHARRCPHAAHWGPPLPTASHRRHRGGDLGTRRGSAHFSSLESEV
- method_summary: Antagonist activity rat recombinant GluN1/GluN2D receptor expressed in Xenopus laevis oocytes assessed as inhibition of glutamate-induced response by two-electrode voltage-clamp electrophysiology assay
- test_settings: read-out: Ki(app)
pKi: −log10 of the molar value.
assay_endpoint: pKi

>  <compound>
O=C(O)[C@H]1NCCN(Cc2ccc3c(ccc4ccccc43)c2)[C@H]1C(=O)O

>  <val>
5.49

$$$$
>  <compound>
O=C(O)[C@@H]1[C@H](C(=O)O)NCCN1C(=O)c1ccc2c(ccc3ccccc32)c1

>  <val>
7.05

$$$$
>  <compound>
O=C(O)[C@H]1NCCN(S(=O)(=O)c2ccc(-c3ccccc3)cc2)[C@H]1C(=O)O

>  <val>
4.96

$$$$
>  <compound>
O=C(O)[C@H]1NCCN(C(=O)c2ccc(C#Cc3ccccc3)cc2)[C@H]1C(=O)O (relative stereo)

>  <val>
4.98

$$$$
>  <compound>
O=C(O)[C@H]1NCCN(C(=O)c2ccc(/N=N/c3ccccc3)cc2)[C@H]1C(=O)O (relative stereo)

>  <val>
4.97

$$$$
>  <compound>
O=C(O)[C@H]1NCCN(C(=O)c2ccc3cc(I)c4ccccc4c3c2)[C@H]1C(=O)O (relative stereo)

>  <val>
6.00

$$$$

* * *

- experimental_system: Glutamate NMDA receptor; Grin1/Grin2c (Rattus norvegicus, UniProt P35439+Q00961)
- method_summary: Antagonist activity rat recombinant GluN1/GluN2C receptor expressed in Xenopus laevis oocytes assessed as inhibition of glutamate-induced response by two-electrode voltage-clamp electrophysiology assay
- test_settings: read-out: Ki(app)
pKi: −log10 of the molar value.
assay_endpoint: pKi

>  <compound>
O=C(O)[C@H]1NCCN(C(=O)CCc2ccc3ccccc3c2)[C@H]1C(=O)O (relative stereo)

>  <val>
5.39

$$$$
>  <compound>
O=C(O)[C@H]1NCCN(C(=O)c2ccc3cc(I)c4ccccc4c3c2)[C@H]1C(=O)O (relative stereo)

>  <val>
5.72

$$$$
>  <compound>
O=C(O)[C@H]1NCCN(C(=O)c2ccc3ccc4ccccc4c3c2)[C@H]1C(=O)O

>  <val>
5.28

$$$$
>  <compound>
O=C(O)[C@H]1NCCN(C(=O)c2ccc3cc(Br)c4ccccc4c3c2)[C@H]1C(=O)O (relative stereo)

>  <val>
5.55

$$$$
>  <compound>
O=C(O)[C@@H]1[C@H](C(=O)O)NCCN1C(=O)c1ccc2c(ccc3ccccc32)c1

>  <val>
7.15

$$$$
>  <compound>
O=C(O)[C@H]1NCCN(C(=O)c2ccc(C#Cc3ccccc3)cc2)[C@H]1C(=O)O (relative stereo)

>  <val>
4.67

$$$$
>  <compound>
O=C(O)[C@H]1NCCN(C(=O)c2ccc3cc(I)ccc3c2)[C@H]1C(=O)O (relative stereo)

>  <val>
5.74

$$$$
>  <compound>
O=C(O)[C@H]1NCCN(C(=O)c2ccc3cc4ccccc4cc3c2)[C@H]1C(=O)O (relative stereo)

>  <val>
5.47

$$$$
